Reported values of ΔΔG‡-N for individual entries
# ASSAY_SUMMARY: Folding and unfolding kinetics (Chevron plot, stopped-flow CD, GuHCl)
# Assay type: physicochemical
# CONDITION_INFO: in reference to WT*; positive value = decrease in unfolding activation barrier
# Procedure: Due to signal-to-noise considerations, relatively high protein concentrations (>100 μM) of FGF-1 were required for kinetic studies monitored by CD. At these concentrations protein precipitation occurred in ADA buffer. […] Protein samples were degassed for 10 minutes prior to analysis. […] Data collection times for each protein were designed to quantify the CD signal over 5 half-lives, or >96% of the total expected amplitude. […]
METRIC_NAME: ΔΔG‡-N (kcal/mol)

[[record]]
molecule = "SYM5: FGF-1 core mutant Leu44→Phe/Leu73→Val/Val109→Leu/Leu111→Ile/Cys117→Val (protein, UniProt P05230 16-155, looked up, variant L44F L73V V109L L111I C117V) Fibroblast growth factor 1: FNLPPGNYKKPKLLYCSNGGHFLRILPDGTVDGTRDRSDQHIQFQLSAESVGEVYIKSTETGQYLAMDTDGLVYGSQTPNEECLFLERLEENHYNTYISKKHAEKNWFLGIKKNGSVKRGPRTHYGQKAILFLPLPVSSD"
result_unit = "kcal/mol"
recorded_result = -0.6

[[record]]
molecule = "SYM6/Δ104-106: SYM6 FGF-1 mutant plus Ala103→Gly/ΔGlu104/ΔLys105/ΔAsn106 (protein, UniProt P05230 16-155, looked up, variant A103G E104* K105* N106*, SYM6 background mutations, SYM6 FGF-1 mutant plus Ala103→Gly/ΔGlu104/ΔLys105/ΔAsn106) Fibroblast growth factor 1: FNLPPGNYKKPKLLYCSNGGHFLRILPDGTVDGTRDRSDQHIQLQLSAESVGEVYIKSTETGQYLAMDTDGLLYGSQTPNEECLFLERLEENHYNTYISKKHGWFVGLKKNGSCKRGPRTHYGQKAILFLPLPVSSD"
result_unit = "kcal/mol"
recorded_result = 0.935

[[record]]
molecule = "SYM6/Δ120-122: SYM6 FGF-1 mutant plus Arg119→Gly/ΔGly120/ΔPro121/ΔArg122 (protein, UniProt P05230 16-155, looked up, variant L44F M67I L73V V109L L111I C117V R119G del120-122) Fibroblast growth factor 1: FNLPPGNYKKPKLLYCSNGGHFLRILPDGTVDGTRDRSDQHIQFQLSAESVGEVYIKSTETGQYLAIDTDGLVYGSQTPNEECLFLERLEENHYNTYISKKHAEKNWFLGIKKNGSVKGTHYGQKAILFLPLPVSSD"
result_unit = "kcal/mol"
recorded_result = 1.45

[[record]]
molecule = "SYM5/ΔΔ: SYM5 FGF-1 mutant plus both Δ104-106 and Δ120-122 deletion mutations (protein, UniProt P05230 16-155, looked up, variant L44F L73V V109L L111I C117V A103G del104-106 R119G del120-122) Fibroblast growth factor 1: FNLPPGNYKKPKLLYCSNGGHFLRILPDGTVDGTRDRSDQHIQFQLSAESVGEVYIKSTETGQYLAMDTDGLVYGSQTPNEECLFLERLEENHYNTYISKKHGWFLGIKKNGSVKGTHYGQKAILFLPLPVSSD"
result_unit = "kcal/mol"
recorded_result = 0.146

